# TESTED ON: Cytochrome P450 2C8 (Homo sapiens, UniProt P10632)
# Sequence (P10632 whole entry): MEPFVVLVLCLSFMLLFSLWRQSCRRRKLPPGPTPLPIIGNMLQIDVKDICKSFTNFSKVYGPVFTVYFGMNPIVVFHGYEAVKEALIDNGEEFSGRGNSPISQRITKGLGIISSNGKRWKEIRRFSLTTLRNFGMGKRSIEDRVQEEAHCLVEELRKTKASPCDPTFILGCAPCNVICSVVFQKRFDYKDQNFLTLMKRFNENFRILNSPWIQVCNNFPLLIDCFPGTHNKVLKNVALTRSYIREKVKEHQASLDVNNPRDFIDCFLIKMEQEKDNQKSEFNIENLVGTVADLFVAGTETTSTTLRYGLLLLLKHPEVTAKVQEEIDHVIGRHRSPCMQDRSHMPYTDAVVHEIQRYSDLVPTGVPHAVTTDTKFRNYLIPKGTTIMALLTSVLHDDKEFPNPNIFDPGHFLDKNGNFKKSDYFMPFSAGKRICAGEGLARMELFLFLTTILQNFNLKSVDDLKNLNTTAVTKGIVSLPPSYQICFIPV
# TEST: All assays are carried out on a robotic system in 96 well plates. The final incubation volume contains TRIS buffer (0.1 M), MgCl2 (5 mM), human liver microsomes (0.05 mg/mL), amodiaquine (1 μM) and the test compound at five different concentrations or no compound (high control) in duplicate (e.g. highest concentration 10-50 μM with subsequent serial 1:4 dilutions). Following a short preincubation period, reactions are started with the cofactor (NADPH, 1 mM) and stopped by cooling the incubation down to 8° C. and subsequently by addition of one volume of acetonitrile. An internal standard solution¿the stable isotope d5-desethylamodiaquine is added after quenching of incubations. Peak area analyte (=metabolite formed) and internal standard is determined by LC-MS/MS. The resulting peak area ratio analyte to internal standard in these incubations is compared to a control activity containing no test compound. Within each of the assay runs, the IC50 of a positive control inhibitor (Montelukast) is determined.
READOUT KIND: pIC50
When answering, recall that pIC50 equals minus log10 of the concentration in mol/L, and write that number alone.

// known answers, use as guide
- COMPOUND STRING: "Cc1cccc(C)c1-c1ccc(F)c2c1CC[C@H]2Nc1ccc([C@H]2C[C@@H]2C(=O)O)nc1"
  pIC50: 5.30
- COMPOUND STRING: "Cc1cc(C(=O)NCC(C)(C)O)cc(C)c1-c1ccc(F)c2c1CC[C@H]2Nc1ccc([C@H]2C[C@@H]2C(=O)O)nc1"
  pIC50: 5.00

[ask] GET /values?readout=pIC50&item= `Cc1c(C#N)cccc1-c1ccc(F)c2c1CC[C@H]2Nc1ccc([C@H]2C[C@@H]2C(=O)O)nc1`
[reply] 5.05

Just for reference, ChEMBL document CHEMBL5725871 is where these values come from.
